These data points were gathered from patent US20250002503A1.

TEST DESCRIPTION: Pharmacokinetics in plasma and brain after single i.p. dose
APPLIED CONDITIONS: female, C57-BL6, mouse, plasma, ip, 10 mg/kg
READOUT KIND: AUC (ng·h/mL)
Respond with the bare value in ng·h/mL.

Incoming: Please look up its AUC: C[C@@H]1OC2(CCN(Cc3ccc(F)cc3)CC2)CN(C)C1=O
Outgoing: 1120

###

TEST DESCRIPTION: in vivo
APPLIED CONDITIONS: female, C57-BL6, mouse, ip, 10 mg/kg
READOUT KIND: Tmax (min)
Respond with the bare value in min.

Incoming: Please look up its Tmax: CCN1CC2(CCN(Cc3ccc(C#N)c(F)c3)CC2)O[C@@H](C)C1=O
Outgoing: 15
